Tested on: SK-MEL-2 melanoma
experiment-summary: NCI tumour cell line growth inhibition, 48 h
Some molecules, each annotated with its measured log10(TGI).
For clarity, the numbers are log10 values of TGI expressed in µM.

Some molecules with known log10(TGI) results, for comparison:
CCCCOC(=O)N[C@H]1CCc2cc(OC)c(OC)c(OC)c2-c2ccc(SC)c(=O)cc21 = 0.31
CO/N=C1/c2cc(OC)ccc2-c2c(NOC)nc3ccccc3c21 = 1.95
CCN(CCCl)CCNc1c2ccccc2nc2ccc(OC)cc12 = 0.40
COc1cc2c(/C=C3\C(=O)Nc4ccc(Br)cc43)c(Cl)n(C)c2cc1C = 0.76
O=C1c2cccc3cccc(c23)C(=O)N1CCCCOc1ccc(-c2nc3ccc(N4CCOCC4)cc3[nH]2)cc1 = 1.73

Next molecule, log10(TGI) to be filled in.
Task: Entry c1ccc(COc2nc3ccc(C45CC6CC(CC(C6)C4)C5)cc3[nH]2)cc1 has what log10(TGI)?
Output: 1.72

====

Tested on: SF-295 CNS
experiment-summary: NCI tumour cell line growth inhibition, 48 h
quantity-measured: TGI (µM)
Please respond with the number in µM and leave the unit unwritten.

Some compounds with known TGI results, for comparison:
CC(C)(C)CC(C)(C)Cc1ccc(OCCOCC[N+](C)(C)Cc2ccccc2)cc1 = 15.5
O=C(/C=C1\N=C(c2ccccc2)N(c2ccc3c(c2)Sc2cc(N4C(=O)/C(=C/C(=O)/C=C/c5ccccc5)N=C4c4ccccc4)ccc2N3)C1=O)/C=C/c1ccccc1 = 57

Task: Entry CNCCNc1nc2ccccc2c2c(=O)c3cccc(OC)c3sc12 has what TGI?
Output: 3.13

====

System: A498 renal
experiment-summary: NCI tumour cell line growth inhibition, 48 h
quantity-measured: TGI

Cc1nc2c(=O)[nH]c(=O)nc-2n(CCO)c1C = > 100 µM

Task: Entry COc1cccc(-n2nnc3c(N)nc(N)nc32)c1 has what TGI?
Output: > 100 µM

Task: Entry CC(C)(C)c1ccc(-c2nnc(SCc3ccc(Cl)cc3)n2-c2cccc(C(F)(F)F)c2)cc1 has what TGI?
Output: > 100 µM

Task: Entry NCCOc1ccccn1 has what TGI?
Output: > 100 µM

Task: Entry Cn1c2ccccc2n2c(=O)c(-c3ccc(O)cc3)nnc12 has what TGI?
Output: > 100 µM

====

System: SK-OV-3 ovarian
experiment-summary: NCI tumour cell line growth inhibition, 48 h
Some compounds, each annotated with its measured TGI.

Some compounds with known TGI results, for comparison:
CCCNc1nc(-c2ccc(OC)cc2)nc2ccccc12 = 53 µM
COc1ccccc1NC(=O)C1=C(C)NC(C)=C(C(=O)Nc2ccccc2OC)C1c1ccc(C(C)C)cc1 = > 100 µM
CCOc1ccc(NC(=O)C2=C(C)NC(C)=C(C(=O)Nc3ccc(OCC)cc3)C2c2ccc([N+](=O)[O-])cc2)cc1 = > 100 µM
COC(=O)c1nc2c(C)c(O)c(O)c([C@H](C)CCC=C(C)C)c2o1 = > 100 µM

Task: Fill in the recorded TGI for this compound, with SK-OV-3 ovarian as test system: CC(CN(CP(=O)([O-])[O-])CP(=O)([O-])[O-])N(CP(=O)([O-])[O-])CP(=O)([O-])[O-].N[C@@H]1CCCC[C@@H]1N.[Pt+2] (centres undefined)
Output: > 100 µM

Task: Fill in the recorded TGI for this compound, with SK-OV-3 ovarian as test system: Nc1nc(Cl)cc(NCC2(CO)CC(CCCCc3ccccc3)C2)n1 (centres undefined)
Output: > 100 µM

Task: Fill in the recorded TGI for this compound, with SK-OV-3 ovarian as test system: COc1cc2c(/C=C3\C(=O)Nc4ccc(Br)cc43)c(Cl)n(C)c2cc1C
Output: 18.6 µM

Task: Fill in the recorded TGI for this compound, with SK-OV-3 ovarian as test system: COc1nc2c(nc(N)n2C2OC(CO)C(O)C(O)C2O)c(=O)n1C (centres undefined)
Output: > 100 µM

Task: Fill in the recorded TGI for this compound, with SK-OV-3 ovarian as test system: COC(=O)CCCc1ccc2c(c1)CCC2
Output: > 100 µM

====

System: UO-31 renal
experiment-summary: NCI tumour cell line growth inhibition, 48 h
Use satisfied when the recorded TGI is no lower than 40 µM; use not satisfied when it is lower.

O=C(OCCOCCOC(=O)c1c[nH]cc1-c1ccccc1)c1c[nH]cc1-c1ccccc1 = not satisfied
CCCCCCCCCCCCCC(=O)OCC1OC(OC)C(NC(=O)N(CCCl)N=O)C(O)C1O (stereo unspecified) = satisfied
CC1SC(c2cccs2)N(NC(=O)C(O)c2ccccc2)C1=O (stereo unspecified) = satisfied

Task: Determine whether this molecule has TGI no lower than 40 µM: C=C(C)C1CC2=C(C(=O)OC)C=C(O2)C(C(=C)C)[C@@H]2OC(=O)/C(=C\C1O)[C@H]2N(C)C (stereo partly specified)
Output: not satisfied

Task: Determine whether this molecule has TGI no lower than 40 µM: CC(=O)OC(C)(C)C1CCC(C)(C(O)COc2ccc(CCNC(=O)c3ccccc3)cc2)O1 (stereo unspecified)
Output: satisfied

Task: Determine whether this molecule has TGI no lower than 40 µM: O=Cc1cc(O)c(O)c(O)c1-c1c(C=O)cc(O)c(O)c1O
Output: satisfied

Task: Determine whether this molecule has TGI no lower than 40 µM: OC1(c2ccc(Cl)cc2)c2ccccc2C2=Nc3ccccc3CN21 (stereo unspecified)
Output: satisfied

Task: Determine whether this molecule has TGI no lower than 40 µM: COc1ccc(C(=O)Nc2cccc(C3CC(=O)c4c(cc(OC)c(OC)c4OC)O3)c2)cc1 (stereo unspecified)
Output: satisfied

====

Some compounds, each annotated with its measured TGI.
Test system: OVCAR-8 ovarian
experiment-summary: NCI tumour cell line growth inhibition, 48 h
Please respond with the number in µM and leave the unit unwritten.

Some compounds with known TGI results, for comparison:
CN(C)CCn1cc(-c2ccc3c(Nc4ccc(CC(=O)Nc5cccc(F)c5)cc4)ncnc3c2)cn1 = 6.39
COc1cc(O)c(C(=O)/C=C/c2ccc(O)cc2)cc1Oc1ccc(C(=O)/C=C/c2ccc(O)cc2)c(O)c1 = 7.97
C=C1C(=O)OC2C(C)C3C=CC(=O)[C@@]3(C)C(OC(=O)/C(C)=C/C)C1[C@@H]2OC(C)=O (some centres undefined) = 0.628

Next compound, TGI to be filled in.
Task: Entry O=c1c2ccccc2nc(-c2ccc(Cl)cc2)n1O has what TGI?
Output: 48.4

====

Test system: SK-OV-3 ovarian
experiment-summary: NCI tumour cell line growth inhibition, 48 h
quantity-measured: TGI

Some molecules with known TGI results, for comparison:
COC(=O)/C(C#N)=C1\N=NNN1CCCc1ccccc1 = > 100 µM
CC(=O)NC1C(OCC(=O)NC(C)C(=O)NC(CCC(=O)NCCCCCNc2ccc([N+](=O)[O-])c3[nH]c4ccccc4c(=O)c23)C(N)=O)C(O)C(CO)OC1(C)OCc1ccccc1 (configuration not stated) = > 50 µM
COc1ccc(Cc2ccccc2C(=O)O)c2ccccc12 = > 100 µM

Task: Fill in the recorded TGI for this molecule, with SK-OV-3 ovarian as test system: CCOC(=O)c1cc(-c2ccc(OC)c(OC)c2)cn1C
Output: > 10 µM

Task: Fill in the recorded TGI for this molecule, with SK-OV-3 ovarian as test system: CC(=O)Nc1ccc(C(=O)N[C@@H]2C(=O)N3[C@@H]2SC(C)(C)[C@@H]3C(=O)O)cn1
Output: > 100 µM

Task: Fill in the recorded TGI for this molecule, with SK-OV-3 ovarian as test system: CC(=O)OCCOCNC(=S)N/N=C(\C)c1ccco1
Output: > 100 µM

Task: Fill in the recorded TGI for this molecule, with SK-OV-3 ovarian as test system: COc1ccc2c(c1)CC[C@@H]1C2CC[C@]2(C)OC(=O)CCC12 (some centres not stated)
Output: > 100 µM

====

Tested on: MDA-N
experiment-summary: NCI tumour cell line growth inhibition, 48 h
quantity-measured: TGI

Some compounds with known TGI results, for comparison:
COc1ccccc1NC(=S)N/N=C(/c1ccccc1)c1ccccn1 = 21.5 µM
COC(=O)c1ccc(/C=C/C2=CC(=O)C=CC2=O)cc1 = > 100 µM
Cc1cn2c(/C=C3/C(=O)Nc4ccccc43)c(-c3ccccc3)nc2s1 = > 100 µM
Cc1cccc(Nc2cn(CCOc3ccccc3)c(=O)[nH]c2=O)c1 = > 100 µM
CC(O)CN(CCN(CC(C)O)CC(C)O)CC(C)O.O=[N+]([O-])O.[Cu+2] (stereo not drawn) = > 100 µM
NCCOc1ccccn1 = > 100 µM

Task: Fill in the recorded TGI for this compound, with MDA-N as test system: Brc1ccc(-c2ccc(-c3ccc(Br)s3)s2)s1
Output: > 100 µM

Task: Fill in the recorded TGI for this compound, with MDA-N as test system: CC(C)(C)[Si](C)(C)OCC1OC(n2ccc(=O)[nH]c2=O)C(O[Si](C)(C)C(C)(C)C)/C1=N/O (stereo not drawn)
Output: > 36.2 µM
